- testTarget: Notum (core, 81–451C330S) (Homo sapiens, UniProt Q6P988, C330S)
- Construct: high-throughput biochemical assay with Notum (81–451C330S) and OPTS as a synthetic fluorescent substrate; made in house
- Sequence (Q6P988 81-451 C330S): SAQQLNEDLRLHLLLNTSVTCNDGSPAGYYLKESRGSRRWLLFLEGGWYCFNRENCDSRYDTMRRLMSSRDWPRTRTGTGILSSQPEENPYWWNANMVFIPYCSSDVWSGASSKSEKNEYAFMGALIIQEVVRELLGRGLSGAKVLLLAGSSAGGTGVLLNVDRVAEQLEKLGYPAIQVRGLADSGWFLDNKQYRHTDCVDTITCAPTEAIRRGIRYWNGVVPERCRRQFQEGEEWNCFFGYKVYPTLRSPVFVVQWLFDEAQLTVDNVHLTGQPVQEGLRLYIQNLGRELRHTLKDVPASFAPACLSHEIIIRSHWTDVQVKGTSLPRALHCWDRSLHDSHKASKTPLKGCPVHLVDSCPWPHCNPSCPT
- assayRemarks: Notum-OPTS biochemical assay, Notum (81–451C330S)
- conditionNotes: Table 2; mean ± s.d. of n = 4–12; >10 = 20–50% inhibition @ 10 μM; read-out: Notum IC50
pIC50: −log10 of the molar value.
Label rule, in plain words: pIC50 of 7 and up is criterion met, under 7 is criterion not met.

[
  {
    "molecule": "CC(=O)N1CCc2c(C#N)cccc21 [Compound 4l, 1-Acetylindoline-4-carbonitrile]",
    "discreteLabel": "criterion not met"
  },
  {
    "molecule": "CC(=O)N1CCc2c(Cl)cccc21 [Compound 4g, 1-(4-Chloroindolin-1-yl)ethan-1-one]",
    "discreteLabel": "criterion met"
  },
  {
    "molecule": "CC(=O)N1CC2(CCC2)c2ccccc21 [Compound 4e]",
    "discreteLabel": "criterion not met"
  },
  {
    "molecule": "CC(=O)N1CCc2cc(C#N)ccc21 [Compound 4r, 1-Acetylindoline-5-carbonitrile]",
    "discreteLabel": "criterion not met"
  },
  {
    "molecule": "CC(=O)N1c2ccccc2C2(C)CC12 (stereo not shown) [Compound 4f]",
    "discreteLabel": "criterion not met"
  },
  {
    "molecule": "CC(=O)N1CCc2c1cccc2C(F)(F)F [Compound 4o]",
    "discreteLabel": "criterion met"
  },
  {
    "molecule": "CC(=O)N1c2ccccc2CC1C (stereo not shown) [Compound 4a, 1-(2-Methylindolin-1-yl)ethan-1-one]",
    "discreteLabel": "criterion not met"
  },
  {
    "molecule": "CC(=O)N1CC(C)(C)c2ccccc21 [Compound 4c, 1-(3,3-Dimethylindolin-1-yl)ethan-1-one]",
    "discreteLabel": "criterion not met"
  }
]
